Quick reference: largest response in the series, negative = inhibition of the listed items.
Molecular target: 4'-phosphopantetheinyl transferase ffp (Bacillus subtilis) (UniProt Q9F4F7)
Assay: qHTS Assay for Inhibitors of Bacillus subtilis Sfp phosphopantetheinyl transferase (PPTase);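 further: the enzyme is Sfp with the accession as filed and its product quenches rhodamine fluorescence; 0% = enzyme reaction without inhibitor and -100% = no enzyme wells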
Settings: Biochemical Sfp PPTase activity
The whole screen tested about 310,000 compounds, of which about 11,000 (3.5%) were called active. Roughly 4% stayed inconclusive and do not appear here. The sample holds actives, similar compounds and a random draw of the others, so the mix is not that of the screen.
Quick note: give the figure in %, leave out the unit.

Some solved cases for reference:
1. CC(C)CCn1c(=O)c2c(nc3n2CCCN3Cc2ccccc2)n(C)c1=O    4.31
2. COc1cc(NC(=O)c2ccccc2)c(OC)cc1NC(=O)Cc1ccccc1    -10.9
3. O=C(O)c1ccc(NC(=O)c2ccc(COc3ccc(Cl)cc3)o2)cc1    9.95

Problem: Give the measured largest response in the series, negative = inhibition of CC(C(=O)NC1CCCCC1)N1C(=O)c2cccc3cccc1c23 (stereo unspecified) .
Result: 4.03

Problem: Consider the compound shown here: O=C(NC(=S)Nc1ccccc1N1CCCCC1)c1ccc(F)cc1 What is its recorded largest response in the series, negative = inhibition?
Result: 5.51

Problem: Value lookup for largest response in the series, negative = inhibition; key = Cc1ccc(/C=N/NC(=O)CSc2nc3ccccc3o2)cc1
Result: -16.9

====

Target: 4'-phosphopantetheinyl transferase ffp (Bacillus subtilis) (UniProt Q9F4F7)
Test: qHTS Assay for Inhibitors of Bacillus subtilis Sfp phosphopantetheinyl transferase (PPTase);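 further: the enzyme is Sfp with the accession as filed and its product quenches rhodamine fluorescence; 0% = enzyme reaction without inhibitor and -100% = no enzyme wells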
Conditions: Biochemical Sfp PPTase activity
Hit rate of the full screen: of about 310,000 compounds, about 11,000 (3.5%) were called active. Roughly 4% stayed inconclusive and do not appear here. What follows is part of a selection rich in actives, with near analogues and random picks from the rest.
parameter: largest response in the series, negative = inhibition (%)
Supply the numeric figure in %, leaving out any unit text.

Some solved cases for reference:
1. O=C(N/C(=C\c1ccc([N+](=O)[O-])cc1)C(=O)N1CCOCC1)c1cccc(Br)c1    3.86
2. COCCNC(=O)C1CCN(C(=O)C2CC(=O)N(c3ccc(C)cc3)C2)CC1 (stereo unspecified)    10.9
3. N#Cc1ccccc1NC(=O)c1ccc2c(c1)OCO2    20.2
4. CCC(C)NC(=O)c1ccccc1NC(=O)c1ccccc1N(C)S(C)(=O)=O (stereo unspecified)    17.5
5. COc1ccc(CNC(=O)c2nnn(CC(=O)Nc3cc(C)cc(C)c3)c2N)cc1    -8.71
6. O=C(Nc1ccc(N2CCOCC2)c(Cl)c1)c1ccc(S(=O)(=O)N2CCOCC2)cc1    10.6

Problem: Give the measured largest response in the series, negative = inhibition of O=C(Nc1ccc(S(=O)(=O)Nc2nccs2)cc1)c1cccc(S(=O)(=O)N2CCOCC2)c1 .
Result: 10

Problem: Suppose we examine the molecule CCOC(=O)C(C)n1cnc2c(nnn2-c2ccc(F)cc2)c1=O (stereo unspecified) ; what largest response in the series, negative = inhibition value has been reported?
Result: 8.12

Problem: Request the reported largest response in the series, negative = inhibition associated with O=C(OCCN=C1NS(=O)(=O)c2ccccc21)c1cccc([N+](=O)[O-])c1
Result: 0.751

Problem: Any idea what its largest response in the series, negative = inhibition is? The molecule is Cc1ccc(S(=O)(=O)NCCC(=O)Nc2cccc(S(N)(=O)=O)c2)cc1C
Result: -1.6

Problem: Query (molecule): COc1cccc(OCc2cc(C(=O)N3CCN(C(=O)c4ccco4)CC3)no2)c1 ; field requested: largest response in the series, negative = inhibition
Result: 10.6

Problem: # largest response in the series, negative = inhibition lookup, item O=C(O)c1ccc(/C=C2\SC(=S)N(NC(=O)c3ccc(Br)cc3)C2=O)cc1
Result: -5.87

Problem: # largest response in the series, negative = inhibition lookup, item CCOC(=O)C1=C(CN2CCc3ccccc32)NC(=O)NC1c1cccc([N+](=O)[O-])c1 (stereo unspecified)
Result: 3.8

Problem: For the molecule shown here, CCCCNC(=O)c1ccccc1NC(=O)C1=C(C)OCCS1 , give the reported largest response in the series, negative = inhibition.
Result: 4.87

Problem: Item O=C(O)c1ccc2c(c1)C(=O)N(NC(=O)c1ccc(O)cc1)C2=O has what recorded largest response in the series, negative = inhibition?
Result: 1.07

Problem: I would be grateful if you could share the reported largest response in the series, negative = inhibition for CCOC(=O)C1=C(CN2CCc3ccccc32)NC(=O)NC1c1ccc(Cl)cc1 (stereo unspecified) .
Result: -11.6
